- Test system: AM-38 (Glioblastoma);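 note: after 72 h of two-drug dosing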
- protocol: Bliss excess, mean over the matrix (fraction); higher = more synergy
Would you mind labelling by Bliss excess? At or over 0.009 is fulfilled, under is not fulfilled.

Consider the following illustrative entries.
CN(C)CCCOc1ccc(-c2ccc3ncc4c(c3c2)n(C2CCOCC2)c(=O)n4C)cn1 [AZD0156] + O=C(c1cc(Cc2n[nH]c(=O)c3ccccc23)ccc1F)N1CCN(C(=O)C2CC2)CC1 [Olaparib] (first compound max 3 µM, partner max 3 µM) :: fulfilled
COc1nnc2ccc(N3CCC(c4ccc(OCCN5CCN(C)C(=O)[C@H]5C)cc4)CC3)nn12 [AZD5153] + CN(CC[C@H](CSC1=CC=CC=C1)NC2=C(C=C(C=C2)S(=O)(=O)NC(=O)C3=CC=C(C=C3)N4CCC(CC4)[C@H](C5=CC=CC=C5C6=CC=C(C=C6)Cl)O)S(=O)(=O)C(F)(F)F)CCO [AZD4320] (first compound max 1 µM, 7x7, partner max 1 µM) :: fulfilled
COc1nnc2ccc(N3CCC(c4ccc(OCCN5CCN(C)C(=O)[C@H]5C)cc4)CC3)nn12 [AZD5153] + C=CCn1c(=O)c2cnc(Nc3ccc(N4CCN(C)CC4)cc3)nc2n1-c1cccc(C(C)(C)O)n1 [AZD1775] (first compound max 1 µM, partner max 1 µM) :: not fulfilled
NC1(C(=O)N[C@@H](CCO)c2ccc(Cl)cc2)CCN(c2ncnc3[nH]ccc23)CC1 [Capivasertib] + C[C@@H]1COCCN1C2=NC(=NC(=C2)C3(CC3)[S@](=N)(=O)C)C4=C5C=CNC5=NC=C4 [AZD6738] (first compound max 10 µM, 7x7, partner max 10 µM) :: not fulfilled

Lookup: Is Bliss excess at least 0.009? Consider CN(CCO)CC[C@H](CSc1ccccc1)Nc1ccc(S(=O)(=O)NC(=O)c2ccc(N3CCC([C@@H](O)c4ccccc4-c4ccc(Cl)cc4)CC3)cc2)cc1S(=O)(=O)C(F)(F)F [AZD4320] + CCN(CCO)CCCOc1ccc2c(Nc3cc(CC(=O)Nc4cccc(F)c4)[nH]n3)ncnc2c1 [AZD2811] (first compound max 1 µM, 7x7, partner max 1 µM)
Found: fulfilled

Lookup: Is Bliss excess at least 0.009? Consider CC1(C)CCC(CN2CCN(c3ccc(C(=O)NS(=O)(=O)c4ccc(NCC5CCOCC5)c([N+](=O)[O-])c4)c(Oc4cnc5[nH]ccc5c4)c3)CC2)=C(c2ccc(Cl)cc2)C1 [Venetoclax] + C1CN(CCC1(C(=O)N[C@@H](CCO)C2=CC=C(C=C2)Cl)N)C3=NC=NC4=C3C=CN4 [Capivasertib] (first compound max 1 µM, 7x7, partner max 3 µM)
Found: not fulfilled

###

- Tested on: UACC-257 (Melanoma)
- protocol: combination Emax (second highest fraction inhibited in the dose matrix, 72 h); higher = more inhibition; extreme values may be limits of the assay
value-kind: combination Emax
Answer field: number only, no words.

CC1(C)CCC(CN2CCN(c3ccc(C(=O)NS(=O)(=O)c4ccc(NCC5CCOCC5)c([N+](=O)[O-])c4)c(Oc4cnc5[nH]ccc5c4)c3)CC2)=C(c2ccc(Cl)cc2)C1 [Venetoclax] + Cn1cnc2c(F)c(Nc3ccc(Br)cc3Cl)c(C(=O)NOCCO)cc21 [Selumetinib] (first compound max 1 µM, 7x7, partner max 3 µM) :: 0.621

Here is the next item to consider.
Lookup: So what does the record say about combination Emax for CN(CCO)CC[C@H](CSc1ccccc1)Nc1ccc(S(=O)(=O)NC(=O)c2ccc(N3CCC([C@@H](O)c4ccccc4-c4ccc(Cl)cc4)CC3)cc2)cc1S(=O)(=O)C(F)(F)F [AZD4320] + C[C@@H](Nc1cc(F)cc(F)c1)c1cc(C(=O)N(C)C)cc2c(=O)cc(N3CCOCC3)oc12 [AZD8186] (first compound max 1 µM, 7x7, partner max 3 µM) ?
Found: 0.269
